- TESTED ON: Tyrosyl-tRNA synthetase, putative (Trypanosoma cruzi (strain CL Brener))
- Sequence (whole entry): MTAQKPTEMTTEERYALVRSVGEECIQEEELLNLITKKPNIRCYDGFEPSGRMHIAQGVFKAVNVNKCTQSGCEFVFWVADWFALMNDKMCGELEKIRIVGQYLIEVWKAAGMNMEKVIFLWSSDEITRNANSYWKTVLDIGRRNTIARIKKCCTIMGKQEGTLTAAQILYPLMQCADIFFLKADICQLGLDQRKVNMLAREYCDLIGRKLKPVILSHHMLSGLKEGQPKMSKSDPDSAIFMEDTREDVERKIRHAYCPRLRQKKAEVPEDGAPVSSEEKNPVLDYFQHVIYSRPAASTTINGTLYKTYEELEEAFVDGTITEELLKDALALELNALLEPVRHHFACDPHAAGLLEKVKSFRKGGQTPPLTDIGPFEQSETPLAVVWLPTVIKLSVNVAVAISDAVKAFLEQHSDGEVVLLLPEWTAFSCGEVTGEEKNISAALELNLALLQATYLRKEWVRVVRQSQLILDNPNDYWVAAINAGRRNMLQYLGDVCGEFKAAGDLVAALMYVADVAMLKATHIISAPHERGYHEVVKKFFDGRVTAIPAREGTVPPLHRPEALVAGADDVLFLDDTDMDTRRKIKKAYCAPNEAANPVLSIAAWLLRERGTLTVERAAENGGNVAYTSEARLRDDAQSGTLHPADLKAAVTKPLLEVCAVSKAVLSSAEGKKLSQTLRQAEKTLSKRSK
- ASSAY NAME: Trypanosoma cruzi tyrosyl tRNA synthetase (TcYRS) SOP
- Assay type: functional
- Design: scale not given: direction of the effect not stated beside the values
- CONDITION SET: 30 µM
Quick rule for you: Percent Effect under 10% gets Met, anything else gets Not met.

{"columns": ["COMPOUND", "ASSIGNED CLASS"],
 "data": [
  ["COC(=O)c1cccc(OCCn2nc(-c3cccs3)oc2=O)c1", "Met"],
  ["Cc1ccc(N2CCCC(NCc3ccncc3)C2)nn1 (stereo not drawn)", "Met"],
  ["CN1CCCC[C@@H]2[C@H]1[C@@H](c1ccccc1)CCN2C(=O)c1ccccc1", "Not met"],
  ["COc1ccc(CN(Cc2cncn2C)CC2CCCO2)cc1OC (stereo not drawn)", "Not met"],
  ["COc1c(C)cnc(CN2CCOC(Cn3nc(C)nc3C)C2)c1C (stereo not drawn)", "Met"],
  ["CN(C(=O)Cn1nc(-c2ccc(F)cc2)oc1=O)C1CCS(=O)(=O)C1 (stereo not drawn)", "Not met"],
  ["CC(Cn1cccn1)NCc1nc(-c2cccc(Cl)c2)no1 (stereo not drawn)", "Not met"],
  ["O=C1CC(c2cccs2)c2snc(C(=O)O)c2N1 (stereo not drawn)", "Met"],
  ["Cc1n[nH]c(C2CN(C(=O)c3cc(C4CC4)[nH]n3)CCO2)n1 (stereo not drawn)", "Not met"],
  ["CC(C)c1n[nH]c(C2CN(C(=O)CCn3ccccc3=O)CCO2)n1 (stereo not drawn)", "Met"],
  ["Clc1snnc1CN1CCCCC1Cn1cncn1 (stereo not drawn)", "Not met"],
  ["Cc1cccc(Cn2ccc(NS(C)(=O)=O)n2)c1", "Not met"],
  ["CN(Cc1cccc(F)c1)S(=O)(=O)N1CCOCC1", "Not met"]
]}
